Molecular target: Human α2δ-1 subunit of Cav2.2 calcium channel (Homo sapiens, UniProt P54289)
Sequence (P54289 25-1103): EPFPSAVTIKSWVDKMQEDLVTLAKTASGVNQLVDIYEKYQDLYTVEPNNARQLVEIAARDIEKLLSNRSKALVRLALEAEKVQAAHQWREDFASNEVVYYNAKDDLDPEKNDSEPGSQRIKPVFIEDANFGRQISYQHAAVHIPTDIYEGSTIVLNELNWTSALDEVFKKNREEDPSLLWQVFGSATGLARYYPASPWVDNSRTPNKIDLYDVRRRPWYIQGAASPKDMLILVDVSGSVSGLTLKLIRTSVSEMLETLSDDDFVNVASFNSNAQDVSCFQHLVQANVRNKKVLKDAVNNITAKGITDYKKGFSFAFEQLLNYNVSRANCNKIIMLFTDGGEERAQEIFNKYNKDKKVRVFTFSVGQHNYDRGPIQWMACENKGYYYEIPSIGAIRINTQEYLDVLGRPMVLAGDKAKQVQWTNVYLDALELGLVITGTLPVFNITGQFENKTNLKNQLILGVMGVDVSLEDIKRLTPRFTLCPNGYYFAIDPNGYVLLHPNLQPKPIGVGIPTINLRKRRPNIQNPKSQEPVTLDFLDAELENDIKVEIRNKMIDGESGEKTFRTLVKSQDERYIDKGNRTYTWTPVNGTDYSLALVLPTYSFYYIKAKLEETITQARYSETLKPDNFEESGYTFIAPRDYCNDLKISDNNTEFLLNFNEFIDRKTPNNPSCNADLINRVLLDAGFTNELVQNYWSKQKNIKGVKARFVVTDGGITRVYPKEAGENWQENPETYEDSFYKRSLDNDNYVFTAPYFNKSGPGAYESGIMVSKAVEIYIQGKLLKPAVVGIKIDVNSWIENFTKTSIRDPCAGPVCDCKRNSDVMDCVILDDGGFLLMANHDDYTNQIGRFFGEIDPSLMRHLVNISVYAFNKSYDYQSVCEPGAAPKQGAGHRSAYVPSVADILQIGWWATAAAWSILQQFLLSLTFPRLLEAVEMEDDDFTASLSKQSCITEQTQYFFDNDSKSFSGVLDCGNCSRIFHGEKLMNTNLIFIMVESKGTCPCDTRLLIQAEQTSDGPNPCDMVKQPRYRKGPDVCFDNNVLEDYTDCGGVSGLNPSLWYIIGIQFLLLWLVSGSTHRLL
Experiment: Human α2δ-1 subunit of Cav2.2 calcium channel assay ([3H]-gabapentin binding)
Settings: binding to the α2δ-1 subunit of voltage-gated calcium channels expressed as Ki; + also covers inhibition between 1% and 50%
# Ki listing for each entry below
MEASURED_ENDPOINT: Ki

INSERT INTO results (compound, measured_endpoint, recorded_measurement) VALUES
  ('Cc1nn2c(C3CCCN(Cc4ccc(Cl)cc4)C3)ccnc2c1CNCC(F)(F)F (centres unmarked)', 'Ki', '> 5 µM'),
  ('Cc1nn2c(C3CCCN(Cc4ccc(Cl)cc4)C3)ccnc2c1CN(C)Cc1c(F)cccc1F (centres unmarked)', 'Ki', '0.5 to 5 µM'),
  ('Cc1nn2c(C3CCCN(Cc4ccc(Cl)cc4)C3)ccnc2c1CNCC1CC1 (centres unmarked)', 'Ki', '0.5 to 5 µM'),
  ('Nc1ccc(-c2cc3nccc(C4CCCN(Cc5ccccc5)C4)n3n2)cn1 (centres unmarked)', 'Ki', '0.5 to 5 µM'),
  ('COc1cc(-c2cc3nccc(C4CCCN(Cc5ccccc5)C4)n3n2)ccn1 (centres unmarked)', 'Ki', '> 5 µM'),
  ('Cc1nn2c(C3CCCN(Cc4ccccc4)C3)ccnc2c1CCCN (centres unmarked)', 'Ki', '0.5 to 5 µM'),
  ('COc1ncccc1-c1cc2nccc(C3CCCN(Cc4ccc(F)c(F)c4)C3)n2n1 (centres unmarked)', 'Ki', '> 5 µM'),
  ('CCOc1cc(-c2c(C)nn3c(C4CCCN(Cc5ccc(Cl)cc5)C4)ccnc23)ccn1 (centres unmarked)', 'Ki', '> 5 µM');

###

Biological target: Human α2δ-1 subunit of Cav2.2 calcium channel (Homo sapiens)
Assay: Human α2δ-1 subunit of Cav2.2 calcium channel assay ([3H]-gabapentin binding)
Conditions: binding to the α2δ-1 subunit of voltage-gated calcium channels expressed as Ki; + also covers inhibition between 1% and 50%
# Ki listing for each entry below
MEASURED_ENDPOINT: Ki

INSERT INTO measurements (compound, recorded_measurement) VALUES
  ('Cc1cnc2c(-c3ccncc3)cnn2c1C1CCCN(Cc2ccccn2)C1 (centres unmarked)', '0.5 to 5 µM'),
  ('COc1ccc(CCNCc2c(C)nn3c(C4CCCN(Cc5ccc(Cl)cc5)C4)ccnc23)cc1 (centres unmarked)', '0.5 to 5 µM'),
  ('Cc1nn2c([C@H]3CCCN(Cc4ccc(Cl)cc4)C3)ccnc2c1CN[C@@H](C)c1ccccc1', '< 0.5 µM'),
  ('Cc1nn2c(C3CCCN(Cc4ccc(Cl)cc4)C3)ccnc2c1CNCc1ccccc1 (centres unmarked)', '0.5 to 5 µM'),
  ('Cc1nn2c([C@@H]3CCCN(Cc4ccc(Cl)cc4)C3)ccnc2c1CN(C)C', '> 5 µM'),
  ('Cc1nn2c(C3CCCN(Cc4ccc(Cl)cc4)C3)ccnc2c1-c1ccncn1 (centres unmarked)', '> 5 µM'),
  ('Cc1nnc(-c2cccc(-c3c(C)nn4c(C5CCCN(Cc6ccccc6)C5)ccnc34)c2)o1 (centres unmarked)', '0.5 to 5 µM'),
  ('Clc1ccc(CN2CCCC(c3ccnc4c(CNCC5CCOCC5)c(Cl)nn34)C2)cc1 (centres unmarked)', '< 0.5 µM'),
  ('CN[C@H]1CCN(c2cc3nccc([C@H]4CCCN(Cc5ccccc5)C4)n3n2)C1', '> 5 µM'),
  ('Cc1nn2c([C@H]3CCCN(Cc4ccc(Cl)cc4)C3)ccnc2c1CN(C)CC1CC1', '< 0.5 µM'),
  ('Cc1cc2nccc(C3CCCN(CCc4ccccc4)C3)n2n1 (centres unmarked)', '> 5 µM'),
  ('Cc1ccccc1CN1CCCC(c2ccnc3c(-c4ccncc4)c(C)nn23)C1 (centres unmarked)', '0.5 to 5 µM'),
  ('CCN1CCCC(c2ccnc3c(-c4ccncc4)c(C)nn23)C1 (centres unmarked)', '> 5 µM'),
  ('Cc1nn2c(C3CCCN(Cc4ccc(C(F)(F)F)nc4)C3)ccnc2c1CNCC1CCOCC1 (centres unmarked)', '> 5 µM'),
  ('Cc1nn2c(C3CCCCN(Cc4ccc(Cl)cc4)C3)ccnc2c1CNCC1CCOCC1 (centres unmarked)', '> 5 µM'),
  ('Cc1nn2c(C3CCCN(Cc4ccc(Cl)cc4)C3)ccnc2c1CNCc1ccncc1 (centres unmarked)', '0.5 to 5 µM'),
  ('Cn1cncc1-c1cc2nccc(C3CCCN(Cc4ccccc4)C3)n2n1 (centres unmarked)', '0.5 to 5 µM');

###

Molecular target: Human σ1 receptor (Homo sapiens, UniProt Q99720)
Sequence (Q99720 whole entry): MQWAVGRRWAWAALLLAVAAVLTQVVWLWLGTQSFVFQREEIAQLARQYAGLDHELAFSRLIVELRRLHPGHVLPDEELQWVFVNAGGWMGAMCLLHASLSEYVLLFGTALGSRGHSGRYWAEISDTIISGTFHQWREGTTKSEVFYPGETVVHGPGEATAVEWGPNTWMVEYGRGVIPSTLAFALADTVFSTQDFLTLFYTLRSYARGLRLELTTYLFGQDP
MEASURED_ENDPOINT: Ki

INSERT INTO assay_data (compound, target_system, recorded_measurement) VALUES
  ('c1ccc(CN2CCCC(c3ccnc4c(N5CCCC5)cnn34)C2)cc1 (centres unmarked) [Example 88]', 'Human σ1 receptor (Homo sapiens, UniProt Q99720)', '500 to 1000 nM'),
  ('CC(C)CCN1CCCC(c2ccnc3c(CNCC4CCOCC4)c(Cl)nn23)C1 (centres unmarked) [Example 191]', 'Human σ1 receptor (Homo sapiens, UniProt Q99720)', '< 500 nM'),
  ('Cc1cc(C2CCCN(Cc3ccc(Cl)cc3)C2)n2nc(C)c(CNCC3CCOCC3)c2n1 (centres unmarked) [Example 238]', 'Human σ1 receptor (Homo sapiens, UniProt Q99720)', '< 500 nM'),
  ('Cc1nn2c(C3CCCN(Cc4ccc(Cl)cc4)C3)ccnc2c1CN1CCSCC1 (centres unmarked) [Example 167]', 'Human σ1 receptor (Homo sapiens, UniProt Q99720)', '< 500 nM'),
  ('Cc1nn2c(C3CCCN(Cc4ccc(Cl)cc4)C3)ccnc2c1CNCc1cccs1 (centres unmarked) [Example 149]', 'Human σ1 receptor (Homo sapiens, UniProt Q99720)', '< 500 nM'),
  ('N#Cc1cc2nccc(C3CCCN(Cc4ccccc4)C3)n2n1 (centres unmarked) [Example 91]', 'Human σ1 receptor (Homo sapiens, UniProt Q99720)', '> 1000 nM'),
  ('Cc1nn2c([C@H]3CCCN(Cc4ccc(Cl)cc4)C3)ccnc2c1CN[C@H](C)c1ccccc1 [Example 196]', 'Human σ1 receptor (Homo sapiens, UniProt Q99720)', '< 500 nM'),
  ('Cc1nn2c(C3CCCN(Cc4ccc(Cl)cc4)C3)ccnc2c1CNCCCN1CCCC1=O (centres unmarked) [Example 176]', 'Human σ1 receptor (Homo sapiens, UniProt Q99720)', '> 1000 nM'),
  ('Cc1nn2c([C@H]3CCCN(Cc4ccccc4)C3)ccnc2c1CNC[C@H]1CCN(C)C(=O)C1 [Example 244]', 'Human σ1 receptor (Homo sapiens, UniProt Q99720)', '> 1000 nM'),
  ('Cc1nn2c([C@H]3CCCN(Cc4ccc(F)cc4F)C3)ccnc2c1CNCC1CCOCC1 [Example 240]', 'Human σ1 receptor (Homo sapiens, UniProt Q99720)', '< 500 nM'),
  ('CN[C@@H]1CCN(c2cc3nccc([C@H]4CCCN(Cc5ccccc5)C4)n3n2)C1 [Example 87]', 'Human σ1 receptor (Homo sapiens, UniProt Q99720)', '> 1000 nM'),
  ('Cc1nn2c(C3CCCN(Cc4ccc(Cl)cc4)C3)ccnc2c1CNCC(F)(F)F (centres unmarked) [Example 156]', 'Human σ1 receptor (Homo sapiens, UniProt Q99720)', '500 to 1000 nM'),
  ('Clc1ccc(CN2CCCC(c3ccnc4c(CNCC5CCOCC5)c(Br)nn34)C2)cc1 (centres unmarked) [Example 120]', 'Human σ1 receptor (Homo sapiens, UniProt Q99720)', '< 500 nM'),
  ('CC(=O)Nc1nn2c(C3CCCN(Cc4ccccc4)C3)ccnc2c1C (centres unmarked) [Example 9]', 'Human σ1 receptor (Homo sapiens, UniProt Q99720)', '> 1000 nM'),
  ('COc1ncccc1-c1cnn2c(C3CCCN(Cc4ccccc4)C3)ccnc12 (centres unmarked) [Example 40]', 'Human σ1 receptor (Homo sapiens, UniProt Q99720)', '> 1000 nM'),
  ('Cc1nn2c(C3CCCN(Cc4ccccc4)C3)ccnc2c1CNCC1C[C@@H](C)O[C@@H](C)C1 (some centres unmarked) [Example 220]', 'Human σ1 receptor (Homo sapiens, UniProt Q99720)', '500 to 1000 nM'),
  ('Cc1nn2c(C3CCCN(Cc4ccccc4)C3)ccnc2c1CN(C)CC1CC1 (centres unmarked) [Example 234]', 'Human σ1 receptor (Homo sapiens, UniProt Q99720)', '< 500 nM');

###

Molecular target: Human α2δ-1 subunit of Cav2.2 calcium channel (Homo sapiens)
Test: Human α2δ-1 subunit of Cav2.2 calcium channel assay ([3H]-gabapentin binding)
Conditions: binding to the α2δ-1 subunit of voltage-gated calcium channels expressed as Ki; + also covers inhibition between 1% and 50%
pKi: −log10 of the molar value.
# pKi listing for each entry below
MEASURED_ENDPOINT: pKi

INSERT INTO measurements (compound, measured_endpoint, recorded_measurement) VALUES
  ('Cc1nn2c(C3CCCN(Cc4ccc(Cl)cc4)C3)ccnc2c1-c1ccnc(N)n1 (centres unmarked) [Example 140]', 'pKi', '5.30 to 6.30'),
  ('Cc1nn2c(C3CCCN(Cc4ccc(Cl)cc4)C3)ccnc2c1CN1CCC(C#N)CC1 (centres unmarked) [Example 172]', 'pKi', '< 5.30'),
  ('Cc1nn2c([C@H]3CCCN(Cc4ccc(Cl)cc4)C3)ccnc2c1CN[C@H](C)C1CCOCC1 [Example 226]', 'pKi', '5.30 to 6.30'),
  ('c1ccc(CN2CCCC(c3ccnc4c(N5CCCC5)cnn34)C2)cc1 (centres unmarked) [Example 88]', 'pKi', '< 5.30'),
  ('Oc1ncccc1-c1cc2nccc(C3CCCN(Cc4ccc(Cl)cc4)C3)n2n1 (centres unmarked) [Example 115]', 'pKi', '< 5.30'),
  ('Cc1nn2c([C@H]3CCCN(Cc4ccccc4)C3)ccnc2c1CNC[C@@H]1CCC(=O)NC1 [Example 246]', 'pKi', '5.30 to 6.30'),
  ('Cc1nn2c(C3CCCN(Cc4ccccc4)C3)ccnc2c1COCc1ccccc1 (centres unmarked) [Example 101]', 'pKi', '< 5.30'),
  ('Cc1nn2c(C3CCCN(Cc4ccc(Cl)cc4)C3)ccnc2c1-c1ccc(C(N)=O)cc1 (centres unmarked) [Example 129]', 'pKi', '< 5.30');
